TARGET UNDER TEST: P. falciparum apicoplast DNA polymerase (Pf-apPOL) (Plasmodium falciparum)
Sequence (Q8ILY1 entry or part of it): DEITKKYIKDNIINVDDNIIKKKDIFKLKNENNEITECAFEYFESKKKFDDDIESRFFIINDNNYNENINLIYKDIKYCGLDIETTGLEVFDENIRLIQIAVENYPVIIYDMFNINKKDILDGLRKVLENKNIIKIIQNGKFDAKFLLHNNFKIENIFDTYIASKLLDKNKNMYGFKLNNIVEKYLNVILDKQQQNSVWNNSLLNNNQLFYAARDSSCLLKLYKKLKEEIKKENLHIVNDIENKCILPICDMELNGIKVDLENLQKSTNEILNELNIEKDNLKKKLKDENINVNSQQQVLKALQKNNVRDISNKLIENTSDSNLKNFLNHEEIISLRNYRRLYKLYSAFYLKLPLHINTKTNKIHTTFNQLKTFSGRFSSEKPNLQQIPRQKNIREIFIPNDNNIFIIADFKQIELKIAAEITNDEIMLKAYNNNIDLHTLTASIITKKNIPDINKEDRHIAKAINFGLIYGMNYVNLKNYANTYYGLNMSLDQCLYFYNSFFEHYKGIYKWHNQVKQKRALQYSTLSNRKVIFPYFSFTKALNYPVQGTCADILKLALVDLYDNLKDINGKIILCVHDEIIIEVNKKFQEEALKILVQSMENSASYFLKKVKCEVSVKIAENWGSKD
TEST METHOD NOTES: Fluorescence-based high-throughput DNA polymerase assay (molecular beacon), primary screen and dose-response;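 for % inhibition Apol 40': compound concentration given in µM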
Type: biochemical
CONDITION DETAILS: DRC-2; 40'; concentration 20
OBSERVABLE: % inhibition Apol 40' (%)
Supply the numeric figure in %, leaving out any unit text.

compound="COc1ccc(C)cc1NC(=O)Cn1ccc2c(=O)[nH]ccc21 [Molecule 15, COc1ccc(cc1NC(=O)Cn1ccc2c1cc[nH]c2=O)C]" numeric_readout=65
compound="COc1ccc(-c2cc3nc4c(c(=O)n3[nH]2)CCN(C(=O)CCc2ccccc2)C4)cc1 [Molecule 17]" numeric_readout=54
compound="COc1ccc(C=C2Oc3c(ccc4c3CN(c3ccc5c(c3)OCO5)CO4)C2=O)cc1OC [KU0199426]" numeric_readout=63
compound="CC(C)CC(C(=O)O)N1C(=O)C2C3C=CC(C2C1=O)C1C(=O)N(C(CC(C)C)C(=O)O)C(=O)C31 (stereo not shown) [KU0193449]" numeric_readout=20
compound="COc1ccc2c(c1)C(c1ccccc1OC)CC(=O)O2 (stereo not shown) [Molecule 38, COc1ccc2c(c1)C(CC(=O)O2)c1ccccc1OC]" numeric_readout=54

Item O=C(c1ccccc1)N1CCc2c(nc3cc(-c4ccccc4)[nH]n3c2=O)C1 [Molecule 30] with P. falciparum apicoplast DNA polymerase (Pf-apPOL) (Plasmodium falciparum) - % inhibition Apol 40'?
61

Given the entry O=c1cc(-c2ccccc2)oc2c(O)c(O)ccc12 [Molecule 84, Oc1ccc2c(c1O)oc(cc2=O)c1ccccc1] , what % inhibition Apol 40' was observed with P. falciparum apicoplast DNA polymerase (Pf-apPOL) (Plasmodium falciparum)?
23

Param readout = % inhibition Apol 40'; param system = P. falciparum apicoplast DNA polymerase (Pf-apPOL) (Plasmodium falciparum); param query = O=C(Nc1c2c(nn1-c1ccccc1)CSC2)c1ccco1 [KU0055213] ; response: value
59

Observed % inhibition Apol 40' on P. falciparum apicoplast DNA polymerase (Pf-apPOL) (Plasmodium falciparum) for CN(C)S(=O)(=O)Oc1ccc(-c2noc(-c3ccc(Oc4cc(Cl)cc(Cl)c4)o3)n2)cc1 [KU0263859] , please.
57

Look up % inhibition Apol 40' with P. falciparum apicoplast DNA polymerase (Pf-apPOL) (Plasmodium falciparum) for this compound: COCCN(CCOC)Cc1c(O)ccc2c1OC(=Cc1cc(Br)ccc1OC)C2=O [KU0198471]
53

Request body: readout % inhibition Apol 40', system P. falciparum apicoplast DNA polymerase (Pf-apPOL) (Plasmodium falciparum), query CCN1C(=O)C(=Cc2cccc(OC)c2O)SC1=S [Molecule 78, CCN1C(=S)SC(=Cc2cccc(c2O)OC)C1=O] . Return the value.
12

Lab request: please report % inhibition Apol 40' under test system P. falciparum apicoplast DNA polymerase (Pf-apPOL) (Plasmodium falciparum) for COc1cccc(Oc2c(C(F)(F)F)oc3cc(OC(=O)N(C)C)ccc3c2=O)c1 [Molecule 52]
41

# query: % inhibition Apol 40' | item COc1ccccc1CC(=O)N1CCc2c(nc3cc(-c4ccccc4Cl)[nH]n3c2=O)C1 [Molecule 49] | system: P. falciparum apicoplast DNA polymerase (Pf-apPOL) (Plasmodium falciparum)
56

Checklist item: % inhibition Apol 40' tested on P. falciparum apicoplast DNA polymerase (Pf-apPOL) (Plasmodium falciparum), entry Cc1ccc(CNC(=O)c2cnn3c(O)cc(CSc4ccc(Cl)cc4)nc23)cc1 [Molecule 99] , value?
68

Which % inhibition Apol 40' is reported with P. falciparum apicoplast DNA polymerase (Pf-apPOL) (Plasmodium falciparum) for this entry: NC(=O)c1cc[n+](CC2=C(C(=O)[O-])N3C(=O)[C@@H](NC(=O)[C@@H](c4ccccc4)S(=O)(=O)[O-])[C@H]3SC2)cc1.[Na+] [Molecule 9] ?
71

Lab request: please report % inhibition Apol 40' under test system P. falciparum apicoplast DNA polymerase (Pf-apPOL) (Plasmodium falciparum) for Cc1ccc(-n2nnc(C(=O)O)c2-c2ccccn2)c(F)c1 [Molecule 54, Cc1ccc(c(c1)F)n1nnc(c1c1ccccn1)C(=O)O]
42

Record O=C(O)c1cccc(N2N=C(C(F)(F)F)/C(=C/c3ccc(-c4ccccc4[N+](=O)[O-])o3)C2=O)c1 [Molecule 100] : what is its % inhibition Apol 40' with P. falciparum apicoplast DNA polymerase (Pf-apPOL) (Plasmodium falciparum)?
65

Lab note: need % inhibition Apol 40' for O=C1N=C(Nc2cccc(Cl)c2Cl)S/C1=C\c1ccco1 [Molecule 3, O=C1N=C(S/C/1=C\c1ccco1)Nc1cccc(c1Cl)Cl] on P. falciparum apicoplast DNA polymerase (Pf-apPOL) (Plasmodium falciparum), anyone have it?
56

Tell me reported % inhibition Apol 40' for O=[N+]([O-])c1ccc(/C=C/c2ccc3ccccc3n2)o1 [Molecule 21, O=N(=O)c1ccc(o1)/C=C/c1ccc2c(n1)cccc2] , tested with P. falciparum apicoplast DNA polymerase (Pf-apPOL) (Plasmodium falciparum).
61

Given the entry CCCCSc1nnc2c(n1)OC(c1ccc([N+](=O)[O-])o1)Nc1ccccc1-2 (stereo not shown) [KU0065811] , what % inhibition Apol 40' was observed with P. falciparum apicoplast DNA polymerase (Pf-apPOL) (Plasmodium falciparum)?
59

Provide value of % inhibition Apol 40' for this record tested with P. falciparum apicoplast DNA polymerase (Pf-apPOL) (Plasmodium falciparum): CCC(C)NC(=O)c1cc(NC(C)=O)cc2nc(C)ccc12 (stereo not shown) [KU0206314]
40

Provide value of % inhibition Apol 40' for this record tested with P. falciparum apicoplast DNA polymerase (Pf-apPOL) (Plasmodium falciparum): COc1ccc(NC(=O)Cn2ccc3c(=O)[nH]ccc32)cc1Cl [Molecule 10, COc1ccc(cc1Cl)NC(=O)Cn1ccc2c1cc[nH]c2=O]
65

* * *

The following molecules are shown together with reported % inhibition T4 130' 10 values.
TARGET UNDER TEST: bacteriophage T4 DNA polymerase (Enterobacteria phage T4, UniProt P04415)
Construct: made in house
Sequence (P04415 whole entry): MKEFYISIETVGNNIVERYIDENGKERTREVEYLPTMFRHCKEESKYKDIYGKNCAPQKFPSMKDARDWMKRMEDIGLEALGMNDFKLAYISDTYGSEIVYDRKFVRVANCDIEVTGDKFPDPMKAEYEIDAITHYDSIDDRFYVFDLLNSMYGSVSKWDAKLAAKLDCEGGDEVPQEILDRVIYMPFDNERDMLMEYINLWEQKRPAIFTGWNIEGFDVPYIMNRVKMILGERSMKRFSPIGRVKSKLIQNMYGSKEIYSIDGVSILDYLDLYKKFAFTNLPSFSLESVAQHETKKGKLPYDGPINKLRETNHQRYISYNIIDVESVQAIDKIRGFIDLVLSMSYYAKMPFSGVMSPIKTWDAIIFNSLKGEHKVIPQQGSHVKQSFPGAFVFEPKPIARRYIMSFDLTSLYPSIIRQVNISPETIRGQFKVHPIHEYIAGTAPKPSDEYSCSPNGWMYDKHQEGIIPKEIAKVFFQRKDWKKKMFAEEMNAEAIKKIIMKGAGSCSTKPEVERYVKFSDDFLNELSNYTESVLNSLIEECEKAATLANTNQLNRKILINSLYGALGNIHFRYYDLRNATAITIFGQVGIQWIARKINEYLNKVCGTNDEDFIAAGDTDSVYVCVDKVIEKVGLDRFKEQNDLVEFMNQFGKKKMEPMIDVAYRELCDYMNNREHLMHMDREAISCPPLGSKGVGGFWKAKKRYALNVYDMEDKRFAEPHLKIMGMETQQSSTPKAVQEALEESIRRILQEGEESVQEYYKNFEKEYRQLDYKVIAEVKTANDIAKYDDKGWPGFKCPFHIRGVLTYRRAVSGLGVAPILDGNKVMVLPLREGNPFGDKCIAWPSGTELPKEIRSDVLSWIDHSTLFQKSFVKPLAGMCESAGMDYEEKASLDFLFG
TEST METHOD NOTES: Counter-screen against bacteriophage T4 DNA polymerase
Assay type: biochemical
CONDITION DETAILS: DRC-1; read at 130'; concentration 10
Field: numeric (%). Do not append units.

molecule="C#CC(C=CC)OC(=O)c1ccccc1C(=O)O (stereo not shown)" observable="% inhibition T4 130' 10" numeric_readout=10.4202
molecule="Cc1ccc(N2CCC(NC(=O)Cc3cccs3)C2=O)cc1C (stereo not shown)" observable="% inhibition T4 130' 10" numeric_readout=12.5508
molecule=CC(=O)OCC1=C(C(=O)[O-])N2C(=O)[C@@H](NC(=O)Cc3cccs3)[C@H]2SC1.[Na+] observable="% inhibition T4 130' 10" numeric_readout=13.1805
molecule="CC(C)CC(C(=O)O)N1C(=O)C2C3C=CC(C2C1=O)C1C(=O)N(C(CC(C)C)C(=O)O)C(=O)C31 (stereo not shown)" observable="% inhibition T4 130' 10" numeric_readout=-0.6043
molecule=Cn1nc(-c2nc(-c3ccccc3)no2)c2c1CCN(C(=O)Cc1cccs1)C2 observable="% inhibition T4 130' 10" numeric_readout=9
molecule=Cc1nc(C)c2c(n1)N(CC1CCCCC1)C(=O)CC2 observable="% inhibition T4 130' 10" numeric_readout=-7.013

Entry O=C(CCc1csc(NC(=O)Nc2ccccc2)n1)Nc1nc2ccccc2s1 has what % inhibition T4 130' 10?
9.972

* * *

TARGET UNDER TEST: P. falciparum apicoplast DNA polymerase (Pf-apPOL) (Plasmodium falciparum)
TEST METHOD NOTES: Fluorescence-based high-throughput DNA polymerase assay (molecular beacon), primary screen and dose-response;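 for % inhibition apPOL 180': test concentration in µM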
Format: biochemical
CONDITION DETAILS: DRC-1; 180'; conc 5
Source text: The HT assay employs a molecular beacon, a stem-loop DNA template with a Cy3 dye and the Black Hole Quencher on the 3′ and 5′ ends of the DNA, respectively. Pf-apPOL concentration is based on a calculated absorptivity of ε280 = 56750 M^−1 cm^−1. […] To identify apPOL inhibitors we utilised our previously developed high-throughput DNA polymerase assay. […] The assay accurately recapitulates the kinetic behaviour of apPOL, as measured through more conventional low-throughput gel-based assays. […]
Measured % inhibition apPOL 180' values are reported for all entries that follow.
Number in %, nothing else.

Consider the molecule shown here: Cc1ccccc1NC(=O)Cn1ccc2c(=O)[nH]ccc21 [Molecule 50, O=C(Cn1ccc2c1cc[nH]c2=O)Nc1ccc(cc1)C] What is its recorded % inhibition apPOL 180'?
1.53

Dear colleague, I am looking for the recorded % inhibition apPOL 180' of the following molecule: Cc1cc(C)c2c(c1)C1C=CCC1C(c1ccc(C(=O)O)cc1)N2 (stereo not shown)
12.6672

Reported % inhibition apPOL 180', molecule O=C1NN(c2ccc(Cl)c(Cl)c2)C(=O)/C1=C/c1ccc(-c2ccc3c(c2)C(=O)OC3)o1 : ____
43.9311

Entry source: paper PMC9090415
